MEASURED_TARGET: T1, recombinant human IL-23R/Fc chimera (R&D Systems) (human, UniProt Q5VWK5 24-355)
T1 construct: Bought; also called rhIL23RFc
T1 sequence (looked up): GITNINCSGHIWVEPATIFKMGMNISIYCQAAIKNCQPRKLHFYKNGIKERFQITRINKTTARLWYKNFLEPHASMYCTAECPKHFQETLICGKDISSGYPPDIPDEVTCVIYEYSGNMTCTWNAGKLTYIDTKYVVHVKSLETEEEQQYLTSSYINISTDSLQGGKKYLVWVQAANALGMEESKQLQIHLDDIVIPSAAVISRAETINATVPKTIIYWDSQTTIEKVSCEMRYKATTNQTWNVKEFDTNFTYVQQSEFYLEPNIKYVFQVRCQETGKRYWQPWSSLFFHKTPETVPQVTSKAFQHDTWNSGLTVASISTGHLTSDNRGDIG
PROTOCOL_NOTES: SPR
READOUT_LABEL: Ka (M⁻¹)
Return type: number; implicit unit M⁻¹.

Take a look at these entries with their results.
>>> value_reported("001-69.4G8 ATRIMER complex, mammalian-cell produced (designed binder, not shown: small tags and cut ends, Homotrimer of this chain (ATRIMER complex); produced in HEK293 cells, glycosylation possible., Mammalian-cell produced material; also called 4G8 m; 4G8 TN m) EPPTQKPKKIVNAKKDVVNTKMFEELKSRLDTLAQEVALLKEQQALQTVCLKGTKVHMKCFLAFTQTKTFHEASEDCISRGGTLSTPQTGSENDALYEYLRQSVGNEAEIWLGLNGSRRSGVWVDMTGARIAYKNWETEITAQPDGGFGVFGENCAVLSGAANGKWFDKRCRDQLPYICQFGIV")
"2.1e+08"
>>> value_reported("001-87.A9E ATRIMER complex (designed binder, Homotrimer of this chain (ATRIMER complex)., not shown: A possible extra N-terminal Ser from the ompA junction is left out) EPPTQKPKKIVNAKKDVVNTKMFEELKSRLDTLAQEVALLKEQQALQTVCLKGTKVHMKCFLAFTQTKTFHEASEDCISRGGTLSTPQTGSENDALYEYLRQSVGNEAEIWLGLNGSALTNTWVDMTGARIAYKNWETEITAQPDGGLGYWGENCAVLSGAANGKWFDKRCRDQLPYICQFGIV")
"5.21e+08"
>>> value_reported("101-54-4B3 ATRIMER complex (designed binder) EPPTQKPKKIVNAKKDVVNTKMFEELKSRLDTLAQEVALLKEQQALQTVCLKGTKVHMKCFLAFTQTKTFHEASEDCISRGGTLSTPQTGSENDALYEYLRQSVGNEAEIWLGLNGSALTNTWVDMTGARIAYKNWELPPPGHPQGGFGVFGENCAVLSGAANGKWFDKRCRDQLPYICQFGIV")
"3.12e+09"
>>> value_reported("105-08-2G7 ATRIMER complex (designed binder) EPPTQKPKKIVNAKKDVVNTKMFEELKSRLDTLAQEVALLKEQQALQTVCLKGTKVHMKCFLAFTQTKTFHEASEDCISRGGTLSTPQTGSENDALYEYLRQSVGNEAEIWLGLNGSPKTGTWVDMTGARIAYKNWETEITAQPDGGFGYFGENCAVLSGAANGKWFDKRCRDQLPYICQFGIV")
"6.99e+08"
>>> value_reported("105-20-1H1 ATRIMER complex (designed binder) EPPTQKPKKIVNAKKDVVNTKMFEELKSRLDTLAQEVALLKEQQALQTVCLKGTKVHMKCFLAFTQTKTFHEASEDCISRGGTLSTPQTGSENDALYEYLRQSVGNEAEIWLGLNGSPLTNTWVDMTGARIAYKNWETEITAQPDGGWGYFGENCAVLSGAANGKWFDKRCRDQLPYICQFGIV")
"1.17e+09"

Now examine the next entry.
Please list Ka recorded for the binder 101-51-1A3 ATRIMER complex (designed binder, Forms a homotrimer through the tetranectin coiled coil; one protomer is given., not shown: C-terminal tag: His/Myc (pANA4) or HA-StrepII (pANA10)) EPPTQKPKKIVNAKKDVVNTKMFEELKSRLDTLAQEVALLKEQQALQTVCLKGTKVHMKCFLAFTQTKTFHEASEDCISRGGTLSTPQTGSENDALYEYLRQSVGNEAEIWLGLNGSALTNTWVDMTGARIAYKNWEHQPVYQPGGGWGVFGENCAVLSGAANGKWFDKRCRDQLPYICQFGIV
1.77e+09
